test system: CAKI-1; test: NCI tumour cell line growth inhibition, 48 h
Active and inactive are the calls of the source. No stated cut-off is given here; in the data, active = GI50 up to about 1.1 µM and inactive = higher.
Result category, one only: active, inactive

Each molecule tested received a call. Report the one for CCOC(=O)c1cc(C2CCN(Cc3ccccc3)C2=O)c(C(=O)/C=C(/C)N)[nH]1 (stereo unspecified) .
inactive

Each molecule tested received a call. Report the one for COc1cccc2c1C(=O)c1c(O)c3c(c(O)c1C2=O)C[C@@](O)(C(=O)CO)CC3OC1CC(NCCCCC(OC(C)=O)OC(C)=O)C(O)C(C)O1 (stereo partly specified) .
active

Each molecule tested received a call. Report the one for "Cc1ccc(-n2cc(-c3ccc(Cl)cc3)c3c(N/N=C4\SCC(=O)N4C)ncnc32)cc1" .
inactive

Each molecule tested received a call. Report the one for CN(C)CCC(C(=O)C(C)(C)C)c1ccccn1 (stereo unspecified) .
inactive

Each molecule tested received a call. Report the one for "Cc1c(-c2ccccc2)c(C#N)c2nnn(C)c(=O)n12" .
inactive

Each molecule tested received a call. Report the one for "Nc1ccccc1CCCC(=O)O" .
inactive

Each molecule tested received a call. Report the one for "Cc1cc(NC(=O)C(=O)Cc2nc3ccccc3s2)ccc1Cl" .
inactive

Each molecule tested received a call. Report the one for CC(NC(=O)NC(C)(C)C)NC(=O)C(N)CC(=O)O (stereo unspecified) .
inactive

Each molecule tested received a call. Report the one for "O=C(CCc1cc(O)cc(O)c1)NCCc1cc(O)cc(O)c1" .
inactive

Each molecule tested received a call. Report the one for O=C1CCC2(CC1CC(Sc1ccccc1)Sc1ccccc1)OCCO2 (stereo unspecified) .
inactive

Each molecule tested received a call. Report the one for Cc1ccc([N+](=O)[O-])cc1S(=O)(=O)Nc1ccc(C2=NOC(c3ccco3)C2)cc1 (stereo unspecified) .
inactive

Each molecule tested received a call. Report the one for "Cc1c(C(=O)NNc2ccccc2)n2c(S)nnc2c2ccccc12" .
inactive

Each molecule tested received a call. Report the one for CC/C=C/c1cc2c(c3[nH]ccc13)[C@@H](C)CC2C.CC/C=C/c1cc2cc[nH]c2c2c1C(C)C[C@@H]2C.CCc1cc2c(c3[nH]ccc13)[C@@H](C)CC2C (stereo partly specified) .
inactive

Each molecule tested received a call. Report the one for COc1ccc(C2=CC(c3ccccc3)n3nnnc3N2)cc1 (stereo unspecified) .
inactive

Each molecule tested received a call. Report the one for "CCN(CC)C(=S)SS(C)(=O)=O" .
inactive

Each molecule tested received a call. Report the one for "O=C1OC2(c3ccccc31)c1cc(I)c(O)c(I)c1Oc1c2cc(I)c(O)c1I" .
inactive

Each molecule tested received a call. Report the one for COc1ccc(C2=NNC(c3cc4cc(Br)ccc4nc3Cl)C2)cc1 (stereo unspecified) .
inactive

Each molecule tested received a call. Report the one for "CC(C)=CCC[C@@H](C)C1=C(O)C(=O)C(C)=C(Nc2ccccc2F)C1=O" .
inactive

Each molecule tested received a call. Report the one for O=[N+]([O-])[C@@H]1C2C=CC(C2)[C@H]1Cl (stereo partly specified) .
inactive

Each molecule tested received a call. Report the one for "Cc1cc(NS(=O)(=O)c2ccc(NC(=O)c3cccn4c(=O)c5ccccc5nc34)cc2)no1" .
inactive

Each molecule tested received a call. Report the one for COC(=O)C1=C(O)C(C(=O)OC)[C@]2(O)[C@H](C(=O)OC)[C@H]1C[C@@H](c1ccc(Cl)cc1Cl)[C@H]2C(=O)OC (stereo partly specified) .
inactive

Each molecule tested received a call. Report the one for "CCCCCCCCCc1cccc(N2C(N)=NC(N)=NC2(C)C)c1" .
active

Each molecule tested received a call. Report the one for "Cc1cc(-c2ccc(C(=O)O)[nH]2)on1" .
inactive

Each molecule tested received a call. Report the one for "C/C(=N\Nc1ncnc2ccccc12)c1ccccn1" .
active

Each molecule tested received a call. Report the one for "Cc1ccc(/C=C2\Cc3cc(C)c(C)cc3C2=O)c(C(=O)O)c1" .
inactive

Each molecule tested received a call. Report the one for CC1(c2ccc(Cl)s2)CC(c2ccc(Cl)s2)=C(C#N)C(=C(C#N)C#N)N1 (stereo unspecified) .
inactive

Each molecule tested received a call. Report the one for "Cc1oc2nc(N(C)C)nc(NN)c2c1C" .
inactive

Each molecule tested received a call. Report the one for "Cn1c(=O)c2c(nc3n(CCCCl)c(=O)ccn23)n(C)c1=O" .
inactive

Each molecule tested received a call. Report the one for "O=[N+]([O-])c1cc2c(c([N+](=O)[O-])c1)NCc1ccccc1O2" .
inactive

Each molecule tested received a call. Report the one for Cc1ccc(NC(=O)C2C(=O)N(c3ccc(C)c(C)c3)C(=O)C2N=N)cc1C (stereo unspecified) .
inactive

Each molecule tested received a call. Report the one for "O=C1Nc2ccc(S(=O)(=O)NCCO)cc2/C1=C1/Nc2ccccc2C1=O" .
inactive
